Hello, the source for this data is PubChem BioAssay (NCI), in case you need it.

Catalogue of molecules with associated TGI
Tested on: SNB-75 CNS
protocol.text: NCI tumour cell line growth inhibition, 48 h

| molecule | sign.qualifier | TGI / µM |
| --- | --- | --- |
| O=C(Nc1ccc2ncccc2c1)Nc1ccc2ncccc2c1 | > | 100 |
| COC(=O)c1ccc2c(c1)nc(NC(=O)c1ccccc1)n2CCCc1ccccc1 | > | 100 |
| CC(C)(C)NNC(=O)CCn1[nH]c(=O)c(Cl)c(Cl)c1=O | > | 100 |
| O=c1/c(=C/c2ccccc2[N+](=O)[O-])sc2nnc(-c3ccco3)n12 | = | 84.7 |
| CN1CCc2c([nH]c3ccccc23)C1 | > | 100 |
| COC(=O)c1ccc(/C=C/c2cc(O)ccc2O)cc1 | = | 68.5 |
| O=C1Sc2cc3ccccc3cc2C(=O)Sc2ccc(Br)cc21 | = | 13.3 |
| CC1(C)OC(C(=O)Nc2cc3c4ccccc4ccc3c3ccccc23)C(C(=O)N2CCCCC2)O1 (stereo not given) | > | 100 |
| COc1cccc(F)c1C(=O)c1cnc(NC2CCN(S(C)(=O)=O)CC2)nc1N | = | 9.57 |
| N#Cc1c(N)nc(N2CCOCC2)c(C#N)c1-c1ccncc1 | > | 100 |

----------
System: SF-539 CNS
protocol.text: NCI tumour cell line growth inhibition, 48 h
measured.parameter: GI50

| molecule | assayed.target | observed |
| --- | --- | --- |
| CC[As](CC)SC[C@H](C)C(=O)N1CCC[C@H]1C(=O)O | SF-539 CNS | 29.1 nM |
| CC(=O)OC1COC(Oc2c(C)c3c4c(c2O)[C@@H](C)CC[C@@H]4[C@@H](C)C[C@H]3C=C(C)C)C(O)C1OC(C)=O (some centres undefined) | SF-539 CNS | 22400 nM |
| COc1cccc(CC(C)=C(c2ccc(OCCN(C)C)cc2)c2ccc(OCCN(C)C)cc2)c1 | SF-539 CNS | 589 nM |
| O=C(Nc1ccc(Br)cc1F)c1cc(F)ccc1O | SF-539 CNS | 420 nM |
| CN1CCN(C2CCN(C(=O)Nc3cc(Oc4ccc(NC(=O)C5(C(=O)Nc6ccc(F)cc6)CC5)c(F)c4)ccn3)CC2)CC1 | SF-539 CNS | 994 nM |
| Nc1nn2cc(F)cnc2c1C(=O)Nc1cncc(F)c1N1CCC(C(=O)N2CCN(C3COC3)CC2)CC1 | SF-539 CNS | 164 nM |
| O=C(O)COc1ccc2c(=O)c3sc4c(=O)c5ccccc5c(=O)c4c3c(=O)c2c1 | SF-539 CNS | 13200 nM |
| CC1(C)N=C(N)N=C(N)N1c1ccc(CCCCc2ccc(Cl)cc2S(=O)(=O)F)c(Cl)c1 | SF-539 CNS | 539 nM |
| CCCCC#CC1=C(Br)C(=O)OC1 | SF-539 CNS | 2520 nM |

----------
System: NCI/ADR-RES ovarian
protocol.text: NCI tumour cell line growth inhibition, 48 h

| smiles.record | sign.qualifier | TGI / µM |
| --- | --- | --- |
| COC[C@@H](N=CC(C)(C)C)C(C)C | > | 100 |
| CNCc1ccccc1-c1csc([C@@H](C)Nc2nc(C)nc3cc(OC)c(OC)cc23)c1 | = | 4.68 |
| Cc1ccc(S(=O)(=O)c2[nH]cc(/C(=C\C3CCCCC3)[N+](=O)[O-])c2C2CCCCC2)cc1 | = | 19.9 |
| CC[As](CC)SC[C@H](C)C(=O)N1CCC[C@H]1C(=O)O | = | 0.13 |
| CC(C)NC(=O)OCc1c(COC(=O)NC(C)C)c(-c2cc[n+](COC(=O)C3CC3)cc2)n2c1CCC2 | > | 100 |

----------
# TGI per record follows
Tested on: SF-539 CNS
protocol.text: NCI tumour cell line growth inhibition, 48 h

| compound | TGI |
| --- | --- |
| CC1CC(OP(=O)(OCc2ccccc2)OCc2ccccc2)[C@@H](OCc2ccccc2)C(OCc2ccccc2)C1OCc1ccccc1 (stereo partly specified) | > 100 µM |
| CCCC(=O)NC(NC1CCCCC1)(C(=O)OCC)C(F)(F)F (stereo unspecified) | > 100 µM |
| C=CCc1cccc2cc(C(=O)NCc3ccccc3)c(=N)oc12 | > 100 µM |
| CCn1c(-c2ccccc2)cs/c1=N\C(P(=O)(O)O)P(=O)(O)O | > 100 µM |
| COc1cc(C(=O)N2CCN(C=O)C2=S)cc(OC)c1OC | 43.2 µM |
| COc1cccc(CC(C)=C(c2ccc(OCCN(C)C)cc2)c2ccc(OCCN(C)C)cc2)c1 | 1.1 µM |
| C/C=C(\C)C(=O)O[C@H]1C=CC(=O)O[C@H]1CCC(=O)[C@H](C)O | 35.8 µM |
| CC(C)C1=CC23CCC4C(C)(C(=O)O)CCCC4(C)C2CC1C1C(=O)N(c2ccc(Cc4ccc(N5C(=O)C6C7CC8C9(C)CCCC(C)(C(=O)O)C9CCC8(C=C7C(C)C)C6C5=O)cc4)cc2)C(=O)C13 (stereo unspecified) | 20.1 µM |
| CCOC(=O)C(C#N)C1=CC(=O)C(=O)c2ccc(OC)cc21 (stereo unspecified) | 33.5 µM |
| Brc1ccc2[nH]cc(-c3csc(-c4c[nH]c5ccccc45)n3)c2c1 | 16.7 µM |
| COC(=O)/C=C(\C(=O)OC)C1C(=O)Oc2c(C)c(=O)c3ccccc3n21 (stereo unspecified) | > 100 µM |
| O=C(/C=C/c1ccccc1)Oc1cccc(O)c1 | > 100 µM |
| O=S(=O)(O)CCCc1cccc2ccccc12 | > 100 µM |
| O=[N+]([O-])c1ccc(CN(CCCl)OCCCl)cc1 | > 100 µM |
| CC(=O)CCn1c(=S)sc2ccccc21 | > 100 µM |
| O=[N+]([O-])c1cccc(C2=NN(c3ccccc3)C[N+](c3ccc(Br)cc3)=N2)c1 | > 100 µM |
| Cc1ccc(C2SCC(=O)N2c2ccc(-n3c(-c4ccccc4)nc4ccccc4c3=O)cc2)cc1 (stereo unspecified) | 39.6 µM |
| Nc1nn2cc(F)cnc2c1C(=O)Nc1cncc(F)c1N1CCC(C(=O)N2CCN(C3COC3)CC2)CC1 | 0.571 µM |
| Nc1ccc([N+](=O)[O-])cc1N=C/C=C/c1ccccc1 | > 100 µM |
| CN(CCSCCN(C)C(=O)OC(C)(C)C)C(=O)OC(C)(C)C | > 100 µM |
| CC1=NN(c2nc(N)nc(/C(C#N)=C\c3ccc([N+](=O)[O-])s3)n2)C(C)(C)C1 | 0.467 µM |
| Cc1c(C)c2c(c(N)c1C#N)C(=O)N(NC(=O)c1ccccc1)C2=O | > 100 µM |
| O=CCC1CCCCC1 | > 100 µM |
| Cc1ccc(SC2c3ccc(C)cc3Oc3nc(N)c(C#N)c(N)c32)cc1 (stereo unspecified) | 3.82 µM |
| CC1(C)C(C#N)C1C1=C(N2CCOCC2)[C@]2(C)C(OC(=O)c3ccccc3)CC[C@@H]2C1 (stereo partly specified) | > 100 µM |
| COc1cccc(C2c3cc4c(cc3OC(N3CCCCC3)C2C)OCO4)c1O (stereo unspecified) | 5.82 µM |
| O=C(Nc1ccc(Br)cc1F)c1cc(F)ccc1O | 4.2 µM |
| CC[As](CC)SC[C@H](C)C(=O)N1CCC[C@H]1C(=O)O | 0.136 µM |
| CC1(C)CC(=O)C(C=NC(=S)c2ccccc2)=C(O)C1 | > 100 µM |
| N#Cc1c(N)nc(N2CCOCC2)c(C#N)c1-c1ccncc1 | > 100 µM |
| Cc1cn2c(=O)c3ncn(C4OC(CO)C(O)C4O)c3n(C)c2n1 (stereo unspecified) | > 100 µM |
| NC(=S)N/N=C(\CC1OC(=O)c2ccccc21)c1ccc(Cl)cc1 (stereo unspecified) | 44.9 µM |
| C=C1C(=O)OC2CC(C)C(C(CC(C)=O)OC(C)=O)=CCC12 (stereo unspecified) | 69.3 µM |
| Cc1ccc(S(=O)(=O)c2[nH]cc(/C(=C\C3CCCCC3)[N+](=O)[O-])c2C2CCCCC2)cc1 | 2.46 µM |
| O=C(Nc1ccccc1)c1cc(S(=O)(=O)NC2=NC(c3ccccc3)c3cc(Cl)ccc3N2)c(SSc2cc(Cl)c(C(=O)Nc3ccccc3)cc2S(=O)(=O)NC2=NC(c3ccccc3)c3cc(Cl)ccc3N2)cc1Cl (stereo unspecified) | > 100 µM |
| C#CCOc1cccc(-c2ncc3cc(NC(=O)CCl)ccc3n2)c1 | 2.92 µM |
| NC(=S)N/N=C/C(=O)O | > 100 µM |
| NC(N)=NS(=O)(=O)c1ccc(NNc2c3ccccc3nc3c(C(=O)Nc4ccc(S(=O)(=O)Nc5ncccn5)cc4)cccc23)cc1 | > 100 µM |
| Cc1ccc(S(=O)(=O)Nc2ccccc2C=O)cc1 | 5.08 µM |
| C=CCCON(C(=O)OC(C)(C)C)C(C)(C)C | > 100 µM |
| Cc1c2n(c(=O)[nH]c1=O)C1OC(CO)C(O2)C1O (stereo unspecified) | > 100 µM |
